Where do these numbers come from? They come from the OligoGym collection.

Exercise: state measured caspase activation (% of PBS control) for each of the sequences provided.
- tested.on: HIF1A
- measurement.description: HeLa, 100 nM transfected, 24 h, mean of 3
- condition.label: ASO
Bases are written 5' to 3'; sugars and linkages follow in the same order, as letters with counts (s phosphorothioate, o phosphodiester; PS: all linkages phosphorothioate). C may stand for cytosine or 5-methylcytosine; the collection does not tell. l = locked nucleic acid (LNA); d = 2'-deoxy (DNA)

*Q* Reported caspase activation (% of PBS control) for TGGCAAGCATCCTGTA (sugars l5 d6 l1 d1 l3, PS) : what is it?
*A* 443

*Q* Reported caspase activation (% of PBS control) for TGGCAAGCATCCTGTA (sugars ldlddddddddldldl, PS) : what is it?
*A* 206

*Q* Reported caspase activation (% of PBS control) for TGGCAAGCATCCTGTA (sugars ldlddddddddldddl, PS) : what is it?
*A* 160

*Q* Reported caspase activation (% of PBS control) for TGGCAAGCATCCTGTA (sugars ldlddddddddllddl, PS) : what is it?
*A* 197

*Q* Reported caspase activation (% of PBS control) for TACTGCCTTCTTA (sugars l2 d9 l2, PS) : what is it?
*A* 184

*Q* Reported caspase activation (% of PBS control) for GTTACTGCCTTCT (sugars l2 d10 l1, PS) : what is it?
*A* 109

*Q* Reported caspase activation (% of PBS control) for GTTACTGCCTTCTTAC (sugars l2 d1 l1 d8 l4, PS) : what is it?
*A* 194

*Q* Reported caspase activation (% of PBS control) for GTTACTGCCTTCTTAC (sugars ldddlddddddlddll, PS) : what is it?
*A* 133

*Q* Reported caspase activation (% of PBS control) for GTTACTGCCTTCTTAC (sugars l3 d1 l1 d10 l1, PS) : what is it?
*A* 185

*Q* Reported caspase activation (% of PBS control) for GTTACTGCCTTCTTAC (sugars l5 d7 l1 d1 l2, PS) : what is it?
*A* 454

*Q* Reported caspase activation (% of PBS control) for TGGCAAGCATCCT (sugars l4 d6 l3, PS) : what is it?
*A* 361

*Q* Reported caspase activation (% of PBS control) for ACTGCCTTCTTAC (sugars l1 d1 l2 d7 l2, PS) : what is it?
*A* 217

*Q* Reported caspase activation (% of PBS control) for GTTACTGCCTTCTTAC (sugars lddddddddddldldl, PS) : what is it?
*A* 115

*Q* Reported caspase activation (% of PBS control) for GTTACTGCCTTCTTAC (sugars l1 d3 l1 d8 l3, PS) : what is it?
*A* 174

*Q* Reported caspase activation (% of PBS control) for TGGCAAGCATCCTGTA (sugars llddlddddddlddll, PS) : what is it?
*A* 455

*Q* Reported caspase activation (% of PBS control) for TGGCAAGCATCCTGTA (sugars l1 d3 l1 d6 l5, PS) : what is it?
*A* 396

*Q* Reported caspase activation (% of PBS control) for TGGCAAGCATCCT (sugars l1 d1 l1 d9 l1, PS) : what is it?
*A* 160

*Q* Reported caspase activation (% of PBS control) for GTTACTGCCTTCT (sugars lldlddddddldl, PS) : what is it?
*A* 105

*Q* Reported caspase activation (% of PBS control) for GTTACTGCCTTCTTAC (sugars lldlldddddddlddl, PS) : what is it?
*A* 278

*Q* Reported caspase activation (% of PBS control) for TGGCAAGCATCCTGTA (sugars llldlddddddddldl, PS) : what is it?
*A* 350

*Q* Reported caspase activation (% of PBS control) for TGGCAAGCATCCT (sugars l1 d1 l2 d6 l3, PS) : what is it?
*A* 260

*Q* Reported caspase activation (% of PBS control) for TTACTGCCTTCTT (sugars l2 d1 l1 d7 l2, PS) : what is it?
*A* 202

*Q* Reported caspase activation (% of PBS control) for GTTACTGCCTTCT (sugars l1 d2 l1 d6 l3, PS) : what is it?
*A* 134
